Biological target: human PDL1 expressed on cells (human, UniProt Q9NZQ7 19-290)
Assay: cell-based or functional assay
Recorded reporter gene assay Maximum Inhibition (%) by entry
Numbers only; they are read as %.

INSERT INTO assay_data (binder, measurement_unit, result_value) VALUES
  ('PRO997/PRO908 (37-20-B03-sc01 scFv) (scFv, VL-linker-VH, VH4 CDR graft; PRO997 was made in CHO-S cells, PRO908 in bacteria; also called 37-20-B03 CDR) scFv: DIQMTQSPSSLSASVGDRVTITCQASQSIGTYLAWYQQKPGKAPKLLIYRAFILASGVPSRFSGSGSGTDFTLTISSLQPEDFATYYCQSNFYSDSTTIGPNAFGTGTKVTVLGGGGGSGGGGSGGGGSGGGGSQVQLQESGPGLVKPSETLSLTCKVSGFSFNSDYWIYWIRQPPGKGLEWIGSIYGGSSGNTQYASWAQGRVTISVDSSKNQFSLKLSSVTAADTAVYYCARGYVDYGGATDLWGQGTLVTVSS', '%', 95.3);

Input line: Fill in: reporter gene assay Maximum Inhibition (%) of PRO830 (33-03-G02-sc01 scFv) (scFv, also called 33-03-G02 CDR) scFv: DIQMTQSPSSLSASVGDRVTITCQASQSINDYLAWYQQKPGKAPKLLIYKASTLASGVPSRFSGSGSGTDFTLTISSLQPEDFATYYCQQGYIITDIDNVFGTGTKVTVLGGGGGSGGGGSGGGGSGGGGSQVQLQESGPGLVKPSETLSLTCKVSGFSFSSGYDMCWIRQPPGKGLEWIGCVVAGSVDITYYASWAKGRVTISVDSSKNQFSLKLSSVTAADTAVYYCARKDAYSDAFNLWGQGTLVTVSS is ___
Output line: 105

Input line: Which reporter gene assay Maximum Inhibition (%) reading was recorded for the binder PRO1347 (37-20-B03-sc09 scFv) (scFv) DIQMTQSPASLSASVGDRVTITCQASQSIGTYLAWYQQKPGKPPKLLIYRAFILASGVPSRFSGSGSGTDFTLTISSLQPEDFATYYCQSNFYSDSTTIGPNAFGTGTKVTVLGGGGGSGGGGSGGGGSGGGGSEVQLVESGGGLVQPGGSLRLSCAASGFSFNSDYWIYWVRQAPGKGLEWIACIYGGSSGNTQYASWAQGRFTISRDNSKNTVYLQMNSLRAEDTAVYFCARGYVDYGGATDLWGQGTLVTVSS ?
Output line: 88.9

Input line: Which reporter gene assay Maximum Inhibition (%) value is on record for PRO1183 (33-03-G02-sc03 scFv) (scFv, also called 33_03_G02 sc03 Full) scFv: DFQLTQSPSSLSASVGDRVTITCQASQSINDYLAWYQQKPGKSPKLLIYKASTLASGVPSRFSGSGSGTDFTLTISSLQPEDFATYYCQQGYIITDIDNVFGTGTKVTVLGGGGGSGGGGSGGGGSGGGGSQSQLQESGPGLVKPSETLSLTCKASGFSFSSGYDMCWVRQPPGKGLEWIACVVAGSVDITYYASWAKGRVTISKDSSKNQVSLKLSSVTAADTAVYFCARKDAYSDAFNLWGQGTLVTVSS ?
Output line: 102

Input line: Tell me the measured reporter gene assay Maximum Inhibition (%) of PRO1392 (33-03-G02-sc18 scFv) (scFv) scFv: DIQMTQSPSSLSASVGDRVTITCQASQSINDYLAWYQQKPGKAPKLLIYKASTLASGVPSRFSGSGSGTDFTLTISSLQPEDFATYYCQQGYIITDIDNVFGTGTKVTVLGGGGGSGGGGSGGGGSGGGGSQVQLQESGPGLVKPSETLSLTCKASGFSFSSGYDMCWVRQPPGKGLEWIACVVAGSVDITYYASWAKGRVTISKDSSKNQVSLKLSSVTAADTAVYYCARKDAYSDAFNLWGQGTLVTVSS , please.
Output line: 96.7
